The reported measurements were obtained from patent US11292787B2.

- STUDY_TARGET: K-Ras protein (Homo sapiens, UniProt P01116, G12V)
- Construct: in SW620 cells, compound I-a-1 can effectively enhance the degradation of endogenous K-RAS-G12V proteins; endogenous in cells; host or cells: SW-620
- Sequence (P01116 1-188 isoform P01116-2 G12V): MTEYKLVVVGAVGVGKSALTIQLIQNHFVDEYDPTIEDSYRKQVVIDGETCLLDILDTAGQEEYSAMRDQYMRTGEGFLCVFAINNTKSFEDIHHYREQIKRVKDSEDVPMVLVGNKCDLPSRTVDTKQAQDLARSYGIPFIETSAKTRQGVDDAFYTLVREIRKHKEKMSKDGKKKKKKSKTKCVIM
- TEST_NAME: K-Ras protein degradation rate by Western blot in SW-620 cells
- Format: cell-based
- EXPERIMENTAL_CONTEXT: 10 μM, SW-620 cells, 24 h, Western blot, relative to DMSO control; read-out: Degradation rate of compounds at 10 μM on Ras protein (%)
VALUE_KIND: percent K-Ras protein degradation (single point) at 10 µM (%)

1: O=C(NC1CCCCC1)c1c[nH]c(-c2cnc3cccnn23)c1 [VIII-b-3]
2: O=C(Nc1ccccc1)c1csc(-c2n[nH]c3ccccc23)c1 [I-a-11]
QUERY: Which record would sort first by descending percent K-Ras protein degradation (single point) at 10 µM, 1 or 2 ? // caller expects the label of the chosen entry
RESULT: 2
(2: 30%, 1: 2%)
